protocolDescription: Dissociation constant, pKa of the compound
Type: physicochemical
measuredParameter: pKa

Example entries begin here.
1) Oc1cccc(C(F)(F)F)c1 :: 8.9
2) Fc1ccccn1 :: -0.44
3) Fc1ccc2ncccc2c1 :: 4
4) Fc1cccc2cccnc12 :: 3.1

I: O=C(O)c1ccc(F)cc1
II: FC(F)(F)c1nnn[nH]1
Problem: Lab note: check whether I or II has the lower measured pKa. // output: label of the selected item
Result: II

P: O=C(O)c1cccc(C(F)(F)F)c1
Q: Oc1cccc(F)c1
Problem: Parameter check: reported pKa is higher for which label, P or Q ? // output: label of the selected item
Result: Q
(Q: 9.29, P: 3.79)

====

protocolDescription: Half life in rat plasma at 2 mg/kg, po
Format: ADME, organism-based
Set-up: dose 2 mg/kg, route oral
measuredParameter: half-life (h)

Example entries begin here.
1. C[C@H](NC(=O)C(C)(C)Oc1ccc(C(F)(F)F)cn1)[C@@H](Cc1ccc(Cl)cc1)c1cccc(C#N)c1 :: 2.7
2. C[C@H](NC(=O)C(C)(C)Oc1ccccn1)[C@@H](Cc1ccc(Cl)cc1)c1ccccc1 :: 2.2
3. C[C@H](NC(=O)C(C)(C)Oc1cc(F)cc(F)c1)[C@@H](Cc1ccc(Cl)cc1)c1ccccc1 :: 2.4
4. N[C@@H](CC(=O)N1CCn2c(nnc2C(F)(F)F)C1)Cc1cc(F)c(F)cc1F :: 1.7
5. N[C@@H](CC(=O)N1CCn2c(nnc2C(F)(F)F)C1)Cc1ccc(F)c(F)c1 :: 1.8

a: CCc1nnc2n1CCN(C(=O)C[C@H](N)Cc1cc(F)c(F)cc1F)C2
b: C[C@H](NC(=O)C(C)(C)Oc1ccccc1)[C@@H](Cc1ccc(Cl)cc1)c1ccccc1
c: N[C@@H](CC(=O)N1CCn2cnnc2C1)Cc1cc(F)c(F)cc1F
Problem: Place the items in sequence of falling half-life. Would you mind listing the labels in the order asked for?
Result: b, a, c
(b: 2.8 h, a: 1.7 h, c: 1 h)

a: N[C@@H](CC(=O)N1CCn2c(nnc2C(F)(F)F)C1)Cc1cc(F)ccc1F
b: N[C@@H](CC(=O)N1CCn2c(nnc2C(F)(F)C(F)(F)F)C1)Cc1cc(F)c(F)cc1F
Problem: Parameter check: reported half-life is higher for which label, a or b ? // output: label of the selected item
Result: b
(b: 2.3 h, a: 1.6 h)

====

protocolDescription: Dissociation constant, pKa of the compound
Assay type: physicochemical
measuredParameter: pKa

1. Nc1ccc(C(F)(F)F)cc1 :: 2.57

P: Oc1ccc(F)cc1
Q: Fc1cccc2ncccc12
Problem: Lab note: check whether P or Q has the lower measured pKa. // output: label of the selected item
Result: Q

====

protocolDescription: Plasma clearance in rat at 10 mg/kg, po
Format: ADME, organism-based
Set-up: dose 10 mg/kg, route oral
measuredParameter: CL/F (mL/min/kg)

1) CS(=O)(=O)c1cc(F)cc2c3c(n(Cc4ccc(Cl)cc4)c12)C(CC(=O)O)CC3 (stereo not drawn) [DIASTEREOMER 2] :: 2.4

1: CC(=O)c1cc(F)cc2c3c(n(Cc4ccc(Cl)cc4)c12)C(CC(=O)O)CC3 (stereo not drawn)
2: CC(=O)c1cc(S(C)(=O)=O)cc2c3c(n(Cc4ccc(Cl)cc4)c12)[C@@H](CC(=O)O)CC3
Problem: Lab note: check whether 1 or 2 has the lower measured CL/F. // output: label of the selected item
Result: 1
(1: 1.9 mL/min/kg, 2: 14 mL/min/kg)
